Give intrinsic clearance, rat liver microsomes for every item shown.

Observe how each entry below is paired with its result.
Q) Please report the measured intrinsic clearance, rat liver microsomes for `O=C(NCC1CC1)c1cncn1-c1ccc(F)cc1`
A) ≤ 10.7 mL/min/kg

Q) Identify intrinsic clearance, rat liver microsomes associated with the molecule CNCc1cc(N(C)C)nc(C2CCCN2C(=O)COC)n1 (stereo not drawn)
A) ≤ 10.7 mL/min/kg

Read the next record carefully.
Q) Given the molecule `CSC[C@H]1CN(Cc2c[nH]c3c(N)ncnc23)C[C@@H]1O` , write its reported intrinsic clearance, rat liver microsomes.
A) ≤ 10.7 mL/min/kg

###

Assign yes to entries whose intrinsic clearance, rat liver microsomes meets or exceeds 600 mL/min/kg; assign no to the rest.

Q) Would you say `O=C(NCc1cnn2cccnc12)c1ccccc1-n1cnnc1` shows intrinsic clearance, rat liver microsomes at minimum 600 mL/min/kg?
A) no

Every entry's value here was drawn from the Biogen ADME set (Fang et al. 2023).
